- measuredOn: Recombinant human LOXL2 (lysyl oxidase like 2) (Homo sapiens, UniProt Q9Y4K0)
- Sequence (Q9Y4K0 26-774): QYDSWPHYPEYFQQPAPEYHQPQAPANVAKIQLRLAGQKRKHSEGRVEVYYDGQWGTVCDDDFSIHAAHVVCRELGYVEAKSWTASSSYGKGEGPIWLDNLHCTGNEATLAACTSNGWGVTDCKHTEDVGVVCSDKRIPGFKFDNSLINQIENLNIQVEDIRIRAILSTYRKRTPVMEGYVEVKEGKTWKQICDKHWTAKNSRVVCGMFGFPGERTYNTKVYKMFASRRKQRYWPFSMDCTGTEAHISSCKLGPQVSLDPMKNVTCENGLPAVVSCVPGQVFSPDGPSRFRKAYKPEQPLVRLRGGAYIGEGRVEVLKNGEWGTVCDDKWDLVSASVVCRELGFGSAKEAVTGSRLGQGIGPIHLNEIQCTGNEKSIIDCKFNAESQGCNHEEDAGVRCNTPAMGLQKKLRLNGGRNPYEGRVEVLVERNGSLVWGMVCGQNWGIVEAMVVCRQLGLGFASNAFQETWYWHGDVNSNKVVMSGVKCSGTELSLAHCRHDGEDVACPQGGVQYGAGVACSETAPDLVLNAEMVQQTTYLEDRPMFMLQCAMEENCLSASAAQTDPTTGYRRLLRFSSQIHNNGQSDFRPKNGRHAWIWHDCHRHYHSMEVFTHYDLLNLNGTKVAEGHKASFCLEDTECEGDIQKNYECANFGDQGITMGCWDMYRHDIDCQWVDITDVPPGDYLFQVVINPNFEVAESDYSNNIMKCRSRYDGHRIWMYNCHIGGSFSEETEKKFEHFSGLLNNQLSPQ
- measurementProtocol: LOXL2 inhibition assay (fluorometric, cadaverine/Amplex Red/HRP)
- conditionDetails: IC50 class; recombinant human LOXL2, cadaverine substrate; read-out: Activity Range LOXL2
reportedEndpoint: IC50

>  <compound>
NCc1cccc(S(=O)(=O)[C@@H]2C[C@H](C3CCCCC3)CN(C(=O)N3CCS(=O)(=O)CC3)C2)c1 (racemic)

>  <IC50>
≤ 500 nM

$$$$
>  <compound>
CS(=O)(=O)N1C[C@H](Oc2ccc(CN)cc2)C[C@H](c2ccccc2)C1 (racemic) [Example 24, 2,2,2-trifluoroacetate]

>  <IC50>
1000 to 30000 nM

$$$$
>  <compound>
CS(=O)(=O)N1C[C@@H](Oc2cc(CN)ccc2F)C[C@H](c2ccccc2F)C1 (racemic) [Example 93, 2,2,2-trifluoroacetate]

>  <IC50>
≤ 500 nM

$$$$
>  <compound>
CS(=O)(=O)N1CCN(C(=O)[C@@H]2C[C@@H](c3ccccc3)CN(S(=O)(=O)c3ncc(CN)s3)C2)CC1 (racemic) [Example 113T, 2,2,2-trifluoroacetate]

>  <IC50>
≤ 500 nM

$$$$
>  <compound>
NCc1ccnc(S(=O)(=O)N2C[C@@H](C(=O)N3CCS(=O)(=O)CC3)C[C@@H](N3CCCCC3=O)C2)c1 (racemic) [Example 187, 2,2,2-trifluoroacetate]

>  <IC50>
≤ 500 nM

$$$$
>  <compound>
NCc1ccc(S(=O)(=O)N2C[C@H](C(=O)N3CCS(=O)(=O)CC3)C[C@@H](c3ccccc3)C2)s1.O=C(O)C(F)(F)F (racemic) [Example 75B, 2,2,2-trifluoroacetate]

>  <IC50>
≤ 500 nM

$$$$
>  <compound>
CS(=O)(=O)[C@H]1C[C@@H](S(=O)(=O)c2ccc(CN)cc2)CN(c2ccccc2)C1 (racemic) [Example 22, 2,2,2-trifluoroacetate]

>  <IC50>
≤ 500 nM

$$$$
>  <compound>
NCc1ccc(S(=O)(=O)N2C[C@@H](C(=O)N3CCS(=O)(=O)CC3)C[C@@H](C3CCCCC3)C2)s1 (racemic) [Example 121, 2,2,2-trifluoroacetate]

>  <IC50>
≤ 500 nM

$$$$
>  <compound>
NCc1ccc(S(=O)(=O)N2C[C@@H](C(=O)N3CCS(=O)(=O)CC3)C[C@@H](c3ccccc3)C2)s1 (racemic) [Example 75, 2,2,2-trifluoroacetate]

>  <IC50>
≤ 500 nM

$$$$
>  <compound>
CN(C)C(=O)N1C[C@@H](C2CCCCC2)C[C@@H](S(=O)(=O)c2cccc(CN)c2)C1 (racemic)

>  <IC50>
≤ 500 nM

$$$$

I am curious: what IC50 value has been reported for NCc1cccc(O[C@H]2C[C@H](c3ccccc3)CN(C(=O)N3CCS(=O)(=O)CC3)C2)c1 (racemic) ?
1000 to 30000 nM

I am curious: what IC50 value has been reported for NCc1cnc(S(=O)(=O)N2C[C@@H](C(=O)N3CCS(=O)(=O)CC3)C[C@@H](c3ccccc3)C2)s1 (racemic) [Example 112, 2,2,2-trifluoroacetate] ?
≤ 500 nM

* * *

- measuredOn: Bovine lysyl oxidase (LOX) (Bos taurus)
- Sequence (P33072 170-418): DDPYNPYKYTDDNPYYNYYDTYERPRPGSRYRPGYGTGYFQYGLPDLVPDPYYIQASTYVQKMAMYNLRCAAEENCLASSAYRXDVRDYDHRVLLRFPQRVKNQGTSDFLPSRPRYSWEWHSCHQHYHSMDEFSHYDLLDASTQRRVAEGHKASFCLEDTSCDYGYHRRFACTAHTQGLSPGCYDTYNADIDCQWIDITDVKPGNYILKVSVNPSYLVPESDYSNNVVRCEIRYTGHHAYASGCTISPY
reportedEndpoint: IC50

>  <compound>
CS(=O)(=O)[C@@H]1C[C@@H](S(=O)(=O)c2cccc(CN)c2)CN(c2ccccc2)C1 (racemic)

>  <IC50>
> 30 µM

$$$$

I am curious: what IC50 value has been reported for CS(=O)(=O)N1CCN(C(=O)[C@H]2C[C@@H](c3ccccc3)CN(S(=O)(=O)c3cccc(CN)c3)C2)CC1 (racemic) [Example 78, 2,2,2-trifluoroacetate] ?
> 30 µM

I am curious: what IC50 value has been reported for NCc1ccnc(S(=O)(=O)N2C[C@H](C(=O)N3CCOCC3)C[C@H](N3CCCCC3=O)C2)c1 (racemic) [Example 186, 2,2,2-trifluoroacetate] ?
1 to 30 µM

I am curious: what IC50 value has been reported for CC(N)c1cccc(S(=O)(=O)N2C[C@@H](C(=O)N3CCOCC3)C[C@@H](c3ccccc3)C2)c1 (mixture of isomers) [Example 102RAC, 2,2,2-trifluoroacetate] ?
> 30 µM

I am curious: what IC50 value has been reported for CN(C)C(=O)N1C[C@@H](c2ccccc2)C[C@@H](S(=O)(=O)c2cccc(CN)c2)C1.O=C(O)C(F)(F)F (racemic) [Example 74, 2,2,2-trifluoroacetate] ?
> 30 µM

I am curious: what IC50 value has been reported for NCc1cc(S(=O)(=O)N2C[C@@H](C(=O)N3CCS(=O)(=O)CC3)C[C@@H](c3ccccc3)C2)ccn1 (racemic) [Example 130, 2,2,2-trifluoroacetate] ?
1 to 30 µM

The origin of these recorded values is patent US20230310445A1.
